experiment-summary: soluble on expression in E. coli; label from the status in PepcDB or PDB records
endpoint-name: soluble on expression in E. coli

As a guide, the following entries are already answered.
[
  {
    "sequence-record": "MLSVENLKVVYRGVILALDGVSLEVGEGEAVALLGPNGAGKSSLVRTIAGLLPKFEGRVLDGKVRLFGREATHLDPVGISRLGLTAILEGRPLFRYLTPVENLMAAGHRLPPKALKEGMEEVFARFPRLYERRHEQAGYLSGGEQQMLLLGMALLTRPRLLVVDEPSLGLAPKLVGEVMQTLDALRREKGLSLLLVEQNARAALGVVDRVYVLERGRVVFEGSAKEAMEDQDVMEFYLGKEEVGFRQARRYRRRKRWV",
    "soluble on expression in E. coli": "soluble"
  },
  {
    "sequence-record": "MGSDKIHHHHHHMSQNVYIGMTLKPWPILLDHYSMSYDGRVSVKSIGYGMHLFKYHGCIMLATRTKVDSTMAYDTITVSAPWWAKDKLHSFLEDTRGDISTEPKVNIFEETEWCRYGILKSSGFSELVLDEGFKQELMGEVDNFASRGESVVSKLTILLHGKTGTGKTGIARALAVEYHRDLYILNLSTVNDATIHKAIRKVPPGAMLLIEDCDCVKATVSRTAESNADNPPLTLGGVLNALDGIIPLDDCLVIMTTNHPDNLDPALIRKGRVDVSIEVPLISAKQVNEDYFERFGAVLNRTEPLLGCEVYELHRRANLRYGVCCKPV",
    "soluble on expression in E. coli": "not soluble"
  },
  {
    "sequence-record": "MSLINLDVWIDLTNAPHVHYFCQLIKKFEKEGIEYLLTFRDSGNLAKLVEIYNFVGKCIGKHGNTLKDKLIFYAERVIGLTELISNVKPKVAIAKHSVELPRVAFGLNIPVIFVVDNEHAEAQNKLTLPLADEIIKPIATDENKLKEFGGRNFISFEGTCEVANVNSRLKGYYPIDNEILKKLGICDDNPTIVMRPCPNSSYCNGHKDILPKIIEKLQKRIDCNIVVFPRDEHQKEIYREVNAIVPKETIDALSLLYNSDFMIGAGGTMNRESAILGIPTVSCYPQELLGVDKYLIEKDRMIHTNDIKEIINYVEDNLGKRMGVIELEDPTDLMFERVCNYLKEGHHHHHH",
    "soluble on expression in E. coli": "soluble"
  },
  {
    "sequence-record": "MSQPESPEQRRTAILATAERILRSGSPLTLGKVAQEVGISRTALYRYVSGIDEIIETLATKDFPHWLTSLRSAMAAAPTPKQRALCWAIESIKLGRETDHAWLATLSSLNLSENCRNAIASEHSKIDQLLRVELAQLGTPHIELTVATVRAVVMTAIQTPSSTEADDYFTATISAIIDASC",
    "soluble on expression in E. coli": "not soluble"
  },
  {
    "sequence-record": "MIKRNLLVIGLAVMLSACGFQLRGTGATELSVKEMDVSARNAYGPTVLQLREVLERSGVNVHAGAPYRLVLTNEQERERSATYNSGNRTAEYELTTKLDYSILGLNNLELMSDKLEVRKVYVRDGSNITGSEQEAKRAREEMRRDLVNAMVVRLQMLSPPQLDELQRKADERAQAEAAALEAARRQQAETPQQSPLEVPGN",
    "soluble on expression in E. coli": "not soluble"
  },
  {
    "sequence-record": "MSLSKLKVSVFSKHLQFLQGEELAKATAAIGFDGVDLAVRKGGHVEPATVAKDLPALVAILRKNGLEVPMITTDIADTDTPFTEDLLKAASALGIRYYRFGAYKWSAEKPYAAQLEIMKPKLAKLAALNAKYQMCAMYHTHSGVGVVGASIWDLWYMMKDLDPKLMGMNYDVGHATIEGGLGGWIDSFKIAGNYVRGIAVKDFAWEKDPKGGQRSQWKPIGEGTVKFPQFYGMVAATDFAGPFQMHFEYPLGGANNGTRTLTVPKEEVHAAMKKDLDKTRAMLAQAGLEGHHHHHH",
    "soluble on expression in E. coli": "not soluble"
  },
  {
    "sequence-record": "MGSDKIHHHHHHMINQAKIEHSGLVDDFIGLYQALNKDNLHLLAEVYDDNICFIDPMHQVNGLNALTQYFAKLYQNIGYIHFEIKEVLQDDTQASLFWQMQYRHPKLNKGEVVRVDGMSQLKFHQRIYFHRDYFDLGQMLYEHLPCMGGLIRLLKDRAAK",
    "soluble on expression in E. coli": "not soluble"
  },
  {
    "sequence-record": "MALSDRLELVSASEIRKLFDIAAGMKDVISLGIGEPDFDTPQHIKEYAKEALDKGLTHYGPNIGLLELREAIAEKLKKQNGIEADPKTEIMVLLGANQAFLMGLSAFLKDGEEVLIPTPAFVSYAPAVILAGGKPVEVPTYEEDEFRLNVDELKKYVTDKTRALIINSPCNPTGAVLTKKDLEEIADFVVEHDLIVISDEVYEHFIYDDARHYSIASLDGMFERTITVNGFSKTFAMTGWRLGFVAAPSWIIERMVKFQMYNATCPVTFIQYAAAKALKDERSWKAVEEMRKEYDRRRKLVWKRLNEMGLPTVKPKGAFYIFPRIRDTGLTSKKFSELMLKEARVAVVPGSAFGKAGEGYVRISYATAYEKLEEAMDRMERVLKERKLV",
    "soluble on expression in E. coli": "soluble"
  }
]

Give a short answer stating reported soluble on expression in E. coli for MSNALRGGPDFLLSVDSPVNIPSAFWSTLSPMTPRPRLLLTAALLALVPAAQAADLRLYPTLGEVTSQPLKVEGGAVTVPFPKADWAWVVPGSVRLLGVPVTRTRVTPGVNVLRAHEGEAVRVLRGGLNLKGTLADAEALLVQLDSGEYLTVRPDELAFSTRPPSSRDVADVKVTFETGGAGSANLLYQTRALSWKPRYELDASGDAATLRALAEIRNAGDQSFSGSTDLYAGDVRLVPENVPMPTLRWWENSPRPPAARAMPLSPRTALSRLSARLEHHHHHH .
not soluble

Please supply the value of reported soluble on expression in E. coli for the item VTTMHDVARAAGVSQAAVSYAYNQPHKLSAARRAHIFQVAAELGYAGPNPAGRNLRTGQVGALGLMITDSLRYAFDDPATSQLLKGISEVGELAEVALTLLPCPLESTRVAEGSGVLVRGAVDGFLAYAMPDGHPGMQTAMSRRLPIVVIDGPNPGGLPRVGIRDRQAAKEIAEHVLSLGHRRVGFLVDRLVPDGKGGPVDAARTRAARDHVMKERLAGYASACRKYTVPWSSTVVVEAGGFDYELSRTAVETLLDAGPVTAVIAASDLLALAAIDVAHERGLRVPQDLSVVGFDDIPAARAAGLTTVRQPLVDKGREAAQLLLDIIGGGAGREITLPTELVVRESAGPVTADR
not soluble

Dear colleague, please send me the reported soluble on expression in E. coli for MSLSTMLVAEDLSAVGGISLSSALPVLTAMQYDVAALPTSLLSTHTSGYGTPAVVDLSTWLPQVFAHWTRAQLHFDQALIGYVGSVALCQQITTYLEQQTLSLLVVDPVLGDLGQLYQGFDQDYVAAMRQLIQQADVILPNTTEAALLTGAPYQVTPDLEVILPALQAQLKTGAHAVITDVQRADQIGCAWLDEAGHVQYCGARRLPGHYNGTGDTLAAVIAGLLGRGYPLAPTLARANQWLNMAVAETIAQNRTDDRQGEGHHHHHH when you can.
not soluble
